biological target: FGFR3 (UniProt P22607); assay: phosphorylation enrichment, bacterial display (enrichment ratio); higher = better substrate or ligand; peptides without Tyr show the background;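 further: 11-residue human phosphosite peptides and single-mutation variants displayed on the E. coli surface, counted by deep sequencing, each peptide's frequency after selection divided by its frequency in the unselected input library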;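 further: frequency after pTyr selection over input frequency; kinase dosed for 20-30% of maximal phosphorylation in three min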
Sequence (P22607 whole entry, looked up): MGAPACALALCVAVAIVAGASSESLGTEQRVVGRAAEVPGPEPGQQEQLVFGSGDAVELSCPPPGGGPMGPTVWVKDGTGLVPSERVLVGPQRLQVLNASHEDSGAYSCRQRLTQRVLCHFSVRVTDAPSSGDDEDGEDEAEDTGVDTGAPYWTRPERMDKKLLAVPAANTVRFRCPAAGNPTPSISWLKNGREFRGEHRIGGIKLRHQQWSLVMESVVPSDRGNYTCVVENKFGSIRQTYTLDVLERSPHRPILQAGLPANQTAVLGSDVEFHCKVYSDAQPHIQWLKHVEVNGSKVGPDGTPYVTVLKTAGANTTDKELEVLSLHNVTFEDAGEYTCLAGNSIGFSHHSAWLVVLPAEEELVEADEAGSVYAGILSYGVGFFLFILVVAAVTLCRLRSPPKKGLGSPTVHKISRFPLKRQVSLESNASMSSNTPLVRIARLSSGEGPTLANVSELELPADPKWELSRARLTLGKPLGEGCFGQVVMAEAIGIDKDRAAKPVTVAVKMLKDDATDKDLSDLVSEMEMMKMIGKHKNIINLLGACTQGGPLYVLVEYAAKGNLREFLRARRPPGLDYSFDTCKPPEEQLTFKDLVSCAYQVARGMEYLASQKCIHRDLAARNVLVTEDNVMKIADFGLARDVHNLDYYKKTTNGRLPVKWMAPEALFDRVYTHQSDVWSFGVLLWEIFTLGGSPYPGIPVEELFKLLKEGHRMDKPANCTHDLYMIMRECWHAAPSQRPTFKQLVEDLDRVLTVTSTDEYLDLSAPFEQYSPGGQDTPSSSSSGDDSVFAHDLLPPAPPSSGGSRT
Reported phosphorylation enrichment values follow for various sequences
ATTRIBUTE MEASURED: phosphorylation enrichment

- MONOMER SEQUENCE: "TLAHKYHGGGG [HBB_Y146_A141T]"
  RESULT: 0.494
- MONOMER SEQUENCE: "SFPHEYGSQEG [RBM10_Y48_R46H_YF]"
  RESULT: 1.46
- MONOMER SEQUENCE: "RPSRQYATLDV [SCAMP3_Y35]"
  RESULT: 0.336
- MONOMER SEQUENCE: "KQRSDYARELE [MYH3_Y1140]"
  RESULT: 0.481
